Target: adenosine A1 receptor (Rattus norvegicus, UniProt P25099)
Construct: Whole brain minus cerebellum and brainstem from male Long Evans rats (150-200 g) was homogenized
Sequence (P25099 1-326): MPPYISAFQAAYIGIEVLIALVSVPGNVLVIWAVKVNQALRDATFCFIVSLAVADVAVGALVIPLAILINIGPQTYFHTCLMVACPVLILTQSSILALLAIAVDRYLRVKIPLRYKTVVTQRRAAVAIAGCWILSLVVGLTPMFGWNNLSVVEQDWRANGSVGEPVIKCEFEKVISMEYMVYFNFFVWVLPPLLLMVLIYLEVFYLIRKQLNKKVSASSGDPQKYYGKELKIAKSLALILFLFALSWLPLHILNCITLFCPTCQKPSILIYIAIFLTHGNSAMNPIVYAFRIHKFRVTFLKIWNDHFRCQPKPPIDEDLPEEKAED
Assay: Adenosine Receptor Binding - A1 Receptor Affinity (RBA1)
Details: [3H]-CHA, rat whole brain membranes; read-out: RBA-1
Description: Adenosine Receptor Binding - A1 Receptor Affinity (RBA1) […] Tissue homogenate (10 mg/ml) was incubated in 0.05 M Tris-HCI buffer pH 7.7 containing 1.0 nM [^3H]-N^6-cyclohexyladenosine (^3H]-CHA) with or without test agents in triplicate for one hour at 25°C. […] The radio-labeled ligand retained on the filter was measured by liquid scintillation spectrophotometry after shaking the filters for one hour or longer on a mechanical shaker in 10 ml of Beckman Ready Solv HP scintillation cocktail. […]
pIC50: −log10 of the molar value.
Value Kind: pIC50

COc1ccc2c(c1)CCCC2Nc1ncnc2c1ncn2[C@@H]1O[C@H](CO)[C@@H](O)[C@H]1O (stereo partly drawn) [Example 6, N^6-[1-(6-Methoxy)-tetralinyl]-adenosine]; 6.90
OC[C@H]1O[C@@H](n2cnc3c(NCC4=CCCc5ccccc54)ncnc32)[C@H](O)[C@@H]1O [Example 24]; 6.80
OC[C@H]1O[C@@H](n2cnc3c(NCC4(O)CCCc5ccccc54)ncnc32)[C@H](O)[C@@H]1O (stereo partly drawn) [Example 23]; 6.97
